These data points were gathered from PubChem BioAssay AID1775.

# Procedure Details: green autofluorescence of compounds with avidin beads – biophysical, 488/530 nm, flow cytometry, artefact control, profiling panel (AID 1775)
# Experimental Conditions: compound fluorescence 488/530 nm, at 10 µM
Out of some 220,000 compounds screened, about 820 (0.37%) were called active. Rule as the data show it: active = fluorescence above about 47; inactive = the rest. The sample as a whole holds a higher share of actives than the screen did.
// allowed return values: active, inactive

Prompt: Assay outcome for O=C1NC2(CCCCCC2)C(=O)N1CCS(=O)(=O)Oc1ccccc1 : what was it?
Response: inactive

Prompt: Assay outcome for COc1cc(/C=C/C(=O)OCC(=O)N2CCOCC2)ccc1OCC#N : what was it?
Response: inactive

Prompt: Assay outcome for Cc1c(CN2CCC(C)CC2)c(=O)n(-c2ccccc2)n1C : what was it?
Response: inactive

Prompt: Assay outcome for Cc1cc(C)nc(/N=C2\NC(=O)CC(C(=O)O)N2c2ccc(Cl)cc2Cl)n1 (stereo unspecified) : what was it?
Response: active

Prompt: Assay outcome for CCNC(=O)CCc1nc(-c2ccc(C(C)(C)C)cc2)no1 : what was it?
Response: active

Prompt: Assay outcome for CSc1ccc(CN2C(=O)NC3(CCCCCC3)C2=O)cc1 : what was it?
Response: active
